Cited source for all entries: patent US8415346B2

Target system: recombinant JAK2 (JAK2 JH1 domain) (Homo sapiens, UniProt O60674)
Construct: 50 nM JAK2 JH1 domain (Upstate)
Sequence (O60674 849-1124 limits assumed): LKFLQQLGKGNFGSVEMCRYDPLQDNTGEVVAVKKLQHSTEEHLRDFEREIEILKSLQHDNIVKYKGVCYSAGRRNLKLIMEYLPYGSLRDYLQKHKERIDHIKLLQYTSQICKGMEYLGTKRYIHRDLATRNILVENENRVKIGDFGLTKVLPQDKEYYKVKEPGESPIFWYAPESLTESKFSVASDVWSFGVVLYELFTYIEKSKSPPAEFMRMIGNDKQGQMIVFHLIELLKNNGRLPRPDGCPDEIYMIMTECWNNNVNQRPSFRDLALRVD
Assay summary: JAK2 Kinase Activity Inhibition Assay and Determination of IC50 (HTRF)
Stated conditions: HTRF kinase assay, 15 μM MgATP, 50 nM JAK2 JH1 domain
pIC50: −log10 of the molar value.
Property: pIC50

Worked examples, 7 compounds total:
Report pIC50 for CN(C)Cc1ccc(Nc2nn(-c3ccccc3)cc2C(N)=O)cc1 please.
7.44

Report pIC50 for CN(C)S(=O)(=O)c1ccc(Nc2nn(-c3ccccc3)cc2C(N)=O)cc1 please.
7.38

Report pIC50 for CS(=O)(=O)c1ccc(Nc2nn(-c3ccc(Cl)cc3)cc2C(N)=O)cc1 please.
6.54

Report pIC50 for NC(=O)c1cn(-c2ccccc2)nc1Nc1ccc(C(=O)N2CCS(=O)(=O)CC2)cc1 please.
7.89

Report pIC50 for NC(=O)c1cn(-c2ccccc2)nc1Nc1ccc(S(=O)(=O)N2CCOCC2)cc1 please.
7.20

Report pIC50 for NC(=O)c1cn(-c2ccccc2)nc1Nc1ccc(CN2CCOCC2)cc1 please.
7.31

Report pIC50 for CS(=O)(=O)c1ccc(Nc2nn(-c3ccc(S(C)(=O)=O)cc3)cc2C(N)=O)cc1 please.
7.32

[a] CC(O)c1ccc(-n2cc(C(N)=O)c(Nc3ccc(S(C)(=O)=O)cc3)n2)cc1 (stereo not drawn)
[b] CN(C)C(=O)c1ccc(Nc2nn(-c3ccccc3)cc2C(N)=O)cc1
Endpoint returns the identifier whose pIC50 is numerically larger, either a or b . Please respond with the label that marks your chosen entry.
a
(a: 7.70, b: 7.25)
